- Target Entity: ABL^E255K (Homo sapiens, UniProt P00519, E255K)
- Sequence (P00519 whole entry E255K): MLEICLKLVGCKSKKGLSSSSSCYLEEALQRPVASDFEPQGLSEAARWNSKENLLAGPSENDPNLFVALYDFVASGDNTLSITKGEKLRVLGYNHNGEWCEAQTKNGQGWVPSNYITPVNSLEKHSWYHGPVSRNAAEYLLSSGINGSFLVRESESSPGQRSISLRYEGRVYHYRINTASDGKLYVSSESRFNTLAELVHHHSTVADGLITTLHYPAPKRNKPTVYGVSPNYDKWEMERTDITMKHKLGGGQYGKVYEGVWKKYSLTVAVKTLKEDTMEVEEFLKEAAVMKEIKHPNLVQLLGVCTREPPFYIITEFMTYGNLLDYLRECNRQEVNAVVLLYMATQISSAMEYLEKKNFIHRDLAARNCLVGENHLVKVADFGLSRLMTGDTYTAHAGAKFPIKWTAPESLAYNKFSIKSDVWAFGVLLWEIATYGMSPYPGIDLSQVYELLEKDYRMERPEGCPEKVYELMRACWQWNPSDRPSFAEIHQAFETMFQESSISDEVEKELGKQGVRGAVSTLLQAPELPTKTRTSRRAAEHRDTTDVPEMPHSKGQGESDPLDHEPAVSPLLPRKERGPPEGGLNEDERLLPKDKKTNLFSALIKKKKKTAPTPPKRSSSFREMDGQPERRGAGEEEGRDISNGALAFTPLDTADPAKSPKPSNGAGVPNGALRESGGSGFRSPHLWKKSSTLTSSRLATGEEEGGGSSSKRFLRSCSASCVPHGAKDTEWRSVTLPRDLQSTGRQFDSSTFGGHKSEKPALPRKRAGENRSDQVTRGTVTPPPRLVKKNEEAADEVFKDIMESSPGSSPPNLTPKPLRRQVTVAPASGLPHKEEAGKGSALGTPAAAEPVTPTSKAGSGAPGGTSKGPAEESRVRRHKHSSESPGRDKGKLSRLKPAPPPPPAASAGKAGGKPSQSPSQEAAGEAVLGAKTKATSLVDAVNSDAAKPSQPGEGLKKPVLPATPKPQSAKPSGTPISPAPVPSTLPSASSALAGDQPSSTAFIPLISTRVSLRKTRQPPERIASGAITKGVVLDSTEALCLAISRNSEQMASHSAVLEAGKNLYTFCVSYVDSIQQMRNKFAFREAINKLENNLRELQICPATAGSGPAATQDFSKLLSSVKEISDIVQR
- Experiment Notes: ABL mutant enzymatic assay
- Test Settings: 10-dose, 3-fold dilution from 20 μM, 10 μM ATP
Reported Metric: IC50 (nM)
The answer is to be given in nM; state only the numeric part.

// sample CCN1CCN(Cc2ccc(NC(=O)c3cccc(C#Cc4cccc5[nH]nc(N)c45)c3)cc2C(F)(F)F)CC1 [Compound 5] , its IC50 was 8.98

----------
- Target Entity: ABL^F317I (Homo sapiens, UniProt P00519, F317I)
- Sequence (P00519 whole entry F317I): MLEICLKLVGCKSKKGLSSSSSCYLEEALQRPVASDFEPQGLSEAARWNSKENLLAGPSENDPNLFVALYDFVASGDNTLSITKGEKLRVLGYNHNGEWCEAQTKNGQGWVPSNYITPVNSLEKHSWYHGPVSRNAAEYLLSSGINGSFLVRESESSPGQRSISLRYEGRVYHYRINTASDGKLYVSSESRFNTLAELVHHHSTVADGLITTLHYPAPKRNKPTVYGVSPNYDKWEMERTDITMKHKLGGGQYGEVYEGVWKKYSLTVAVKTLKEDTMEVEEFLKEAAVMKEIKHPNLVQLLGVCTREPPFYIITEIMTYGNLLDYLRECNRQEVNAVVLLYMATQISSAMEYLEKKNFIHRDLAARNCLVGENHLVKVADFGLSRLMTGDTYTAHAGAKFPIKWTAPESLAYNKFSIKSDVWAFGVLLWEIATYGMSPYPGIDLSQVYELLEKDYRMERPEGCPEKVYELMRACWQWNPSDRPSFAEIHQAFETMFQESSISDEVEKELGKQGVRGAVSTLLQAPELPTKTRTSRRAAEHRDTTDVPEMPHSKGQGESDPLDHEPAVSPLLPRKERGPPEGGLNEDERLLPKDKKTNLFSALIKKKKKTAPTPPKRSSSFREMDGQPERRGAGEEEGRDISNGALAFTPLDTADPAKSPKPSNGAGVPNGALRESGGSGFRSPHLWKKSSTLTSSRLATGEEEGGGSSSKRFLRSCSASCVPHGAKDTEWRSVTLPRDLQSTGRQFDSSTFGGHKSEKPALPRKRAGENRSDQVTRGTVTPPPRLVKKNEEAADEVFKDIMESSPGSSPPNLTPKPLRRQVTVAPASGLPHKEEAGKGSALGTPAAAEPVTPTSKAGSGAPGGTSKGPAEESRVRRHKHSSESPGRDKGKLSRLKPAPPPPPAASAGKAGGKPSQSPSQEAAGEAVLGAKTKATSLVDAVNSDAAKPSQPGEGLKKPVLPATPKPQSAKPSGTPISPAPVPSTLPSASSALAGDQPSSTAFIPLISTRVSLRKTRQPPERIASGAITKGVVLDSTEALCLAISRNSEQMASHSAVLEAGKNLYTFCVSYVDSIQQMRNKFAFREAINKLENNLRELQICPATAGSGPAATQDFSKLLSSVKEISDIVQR
- Experiment Notes: ABL mutant enzymatic assay
- Test Settings: 10-dose, 3-fold dilution from 20 μM, 10 μM ATP
Reported Metric: pIC50
The quantity pIC50 is defined as the negative base-10 logarithm of the molar concentration.

// sample `CCN1CCN(Cc2ccc(NC(=O)c3cccc(C#Cc4cccc5[nH]nc(N)c45)c3)cc2C(F)(F)F)CC1` , its pIC50 was 8.51

----------
Entries below carry reported GI50 on SR.
The answer is to be given in nM; state only the numeric part.

// sample CN1CCN(Cc2ccc(C(=O)Nc3cccc(C#Cc4cccc5[nH]nc(N)c45)c3)cc2C(F)(F)F)CC1 [Compound 4a] , its GI50 was 1100

// sample CCN1CCN(Cc2ccc(C(=O)Nc3cccc(C#Cc4cccc5[nH]nc(N)c45)c3)cc2C(F)(F)F)CC1 [Compound 4b] , its GI50 was 1780

// sample Nc1n[nH]c2cccc(C#Cc3cccc(NC(=O)c4ccc(N5CCOCC5)c(C(F)(F)F)c4)c3)c12 [I, reference compound] , its GI50 was 2400

// sample CCN1CCN(Cc2ccc(NC(=O)c3cccc(C#Cc4cccc5[nH]nc(N)c45)c3)cc2C(F)(F)F)CC1 [Compound 5] , its GI50 was 238

----------
So I've got a bunch of compounds here, and I need their GI50 values.
The answer is to be given in nM; state only the numeric part.

The compound `CCN1CCN(Cc2ccc(C(=O)Nc3cccc(C#Cc4cccc5[nH]nc(N)c45)c3)cc2C(F)(F)F)CC1` , when measured on HL-60(TB), yielded GI50 of 593

The compound `CCN1CCN(Cc2ccc(NC(=O)c3cccc(C#Cc4cccc5[nH]nc(N)c45)c3)cc2C(F)(F)F)CC1` , when measured on HL-60(TB), yielded GI50 of 97.9

The compound Nc1n[nH]c2cccc(C#Cc3cccc(NC(=O)c4ccc(N5CCOCC5)c(C(F)(F)F)c4)c3)c12 [I, reference compound] , when measured on HL-60(TB), yielded GI50 of 1400

The compound `CN1CCN(Cc2ccc(C(=O)Nc3cccc(C#Cc4cccc5[nH]nc(N)c45)c3)cc2C(F)(F)F)CC1` , when measured on HL-60(TB), yielded GI50 of 278

----------
- Target Entity: CYP2D6 (Homo sapiens)
- Sequence (P10635 whole entry): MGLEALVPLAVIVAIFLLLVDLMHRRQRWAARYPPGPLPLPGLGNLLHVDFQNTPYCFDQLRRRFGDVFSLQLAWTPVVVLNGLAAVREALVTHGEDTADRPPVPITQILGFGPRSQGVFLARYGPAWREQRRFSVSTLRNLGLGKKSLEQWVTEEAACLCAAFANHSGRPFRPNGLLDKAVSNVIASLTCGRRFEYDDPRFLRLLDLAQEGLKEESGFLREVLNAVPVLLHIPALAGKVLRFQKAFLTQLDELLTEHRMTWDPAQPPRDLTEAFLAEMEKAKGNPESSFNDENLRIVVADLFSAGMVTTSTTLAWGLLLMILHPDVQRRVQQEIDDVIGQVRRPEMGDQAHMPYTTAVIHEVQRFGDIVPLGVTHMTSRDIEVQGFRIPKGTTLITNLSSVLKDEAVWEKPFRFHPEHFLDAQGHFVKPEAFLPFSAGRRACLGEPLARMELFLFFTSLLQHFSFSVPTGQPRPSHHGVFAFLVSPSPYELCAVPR
Reported Metric: IC50

The compound `CCN1CCN(Cc2ccc(NC(=O)c3cccc(C#Cc4cccc5[nH]nc(N)c45)c3)cc2C(F)(F)F)CC1` , when measured on CYP2D6 (Homo sapiens), yielded IC50 of > 10 µM

----------
- Test system: RPMI-8226
- Experiment Notes: NCI SRB anti-leukemic assay
- Test Settings: five-dose assay
Reported Metric: TGI (total growth inhibition) RPMI-8226 (µM)
The answer is to be given in µM; state only the numeric part.

// sample CCN1CCN(Cc2ccc(NC(=O)c3cccc(C#Cc4cccc5[nH]nc(N)c45)c3)cc2C(F)(F)F)CC1 [Compound 5] , its TGI (total growth inhibition) RPMI-8226 was 2.66

// sample Nc1n[nH]c2cccc(C#Cc3cccc(NC(=O)c4ccc(N5CCOCC5)c(C(F)(F)F)c4)c3)c12 [I, reference compound] , its TGI (total growth inhibition) RPMI-8226 was 6.50

// sample CCN1CCN(Cc2ccc(C(=O)Nc3cccc(C#Cc4cccc5[nH]nc(N)c45)c3)cc2C(F)(F)F)CC1 [Compound 4b] , its TGI (total growth inhibition) RPMI-8226 was 3.92

// sample CN1CCN(Cc2ccc(C(=O)Nc3cccc(C#Cc4cccc5[nH]nc(N)c45)c3)cc2C(F)(F)F)CC1 [Compound 4a] , its TGI (total growth inhibition) RPMI-8226 was 3.26

The reported numbers originate from paper PMC10360995.
